Numbers sourced from the supplement of paper PMC9732359.

Assay: protein stability index of a GFP-peptide fusion (yeast GPS) (PSI 1-4); higher = more stable; sorted into four equal gates, so the index is relative within each strain
Details: doa10∆
READOUT: protein stability index

> print(dat)
                        entry.sequence  measured.value
 1    SKDIETLKKEWLKEYED [YIL149C/MLP2]            3.34
 2            ELRRFESSINTHPHAAD [SKI6]            2.73
 3            LIDFEYVNDVAIYNNPT [RRI2]            2.73
 4            VIRDSVTYTEHAKRKTV [HHF1]             1.8
 5            ELFKGYLADDIDADSLE [RPL5]            3.02
 6            RNFKKANLVNKESDLLE [BRN1]             1.7
 7            NFIIWINSIDTTESSDL [GRR1]            2.46
 8           LETLEHNGAPHHAIEEA [RPO21]            3.34
 9           PPSLKIIDGPKALILAP [PRP28]            1.62
10            TLQTISFLGYLRYVKQI [ISW2]            2.24
11   AFNFSFNTSRNVEPTEN [YAR002W/NUP60]             3.3
12  SSSANKLLQLFLTPMDS [YML103C/NUP188]            1.81
13            LKTLTHKQIHTTIFVKS [POP7]            1.94
14           DESNDIDMIADENGTNS [RPC37]            2.44
